Reference for the values: ChEMBL document CHEMBL4715736

tested on: SK-OV-3; experiment: Growth inhibition of human SK-OV-3 cells assessed as cell growth at 10 uM incubated for 48 hrs by sulforhodamine B assay relative to control; format: functional; settings: read-out: Activity
We begin with a simple list: items and their reported growth at 10 µM.
State just the number; it will be interpreted in %.

# count of solved cases: 2
{"columns": ["Line notation", "Unit tag", "growth at 10 µM"],
 "data": [
  ["Nc1c(C(=O)N(c2ccccc2)c2ccccc2)sc2nc3c(cc12)C(=O)CCC3", "%", 108],
  ["COc1ccc(S(=O)(=O)n2ccc(-c3ccc4c(c3)CCC(C)(C)O4)n2)cc1", "%", 90.4]
]}

For the molecule shown here, Cc1cccc(NC(=O)c2sc3nc4c(cc3c2N)CN(Cc2ccccc2)CC4)c1 , give the reported growth at 10 µM.
105

What would you report for O=S(=O)(c1ccccc1)n1ccc(-c2ccc3c(c2)CCO3)n1 ?
104

What would you report for Cc1ccc(S(=O)(=O)n2ccc(-c3ccc(OCCCF)cc3)n2)cc1 ?
107
